Could you please report measured inhibition at 1 µM for the items listed next?
Molecular target: human recombinant adrenergic α2A receptor (Homo sapiens, UniProt P08913)
Construct: expressed in transfected cells; host or cells: insect Sf9 cells
Sequence (P08913 whole entry): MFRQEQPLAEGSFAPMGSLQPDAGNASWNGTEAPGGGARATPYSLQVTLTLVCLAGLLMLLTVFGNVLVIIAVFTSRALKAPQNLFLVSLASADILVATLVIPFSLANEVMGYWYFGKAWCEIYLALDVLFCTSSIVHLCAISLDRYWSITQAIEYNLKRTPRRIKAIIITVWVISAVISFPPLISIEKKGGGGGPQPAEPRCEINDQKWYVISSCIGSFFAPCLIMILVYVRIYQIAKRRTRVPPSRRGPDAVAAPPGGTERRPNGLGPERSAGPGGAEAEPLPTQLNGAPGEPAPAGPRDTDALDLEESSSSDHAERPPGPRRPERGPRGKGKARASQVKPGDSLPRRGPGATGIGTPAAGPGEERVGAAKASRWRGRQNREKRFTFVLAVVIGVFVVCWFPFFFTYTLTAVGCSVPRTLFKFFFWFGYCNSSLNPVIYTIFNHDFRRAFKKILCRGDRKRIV
Assay: Adrenergic α2A radioligand binding ([3H]MK-912)
Details: compound at 1 μM; insect Sf9 cells; read-out: Adrenergic (1 μM) α2A, percent inhibition of specific binding

[[record]]
smiles_text = "Cc1ccc2c(c1)c1c(n2CCC(=O)NC2CCCCC2)CCN(C)C1"
result = "14%"


Can you give me inhibition at 1 µM for all of these, one by one?
1. Cc1ccc2c(c1)c1c(n2CCNC(=O)C2CCCCC2)CCN(C)C1
2. Cc1ccc2c(c1)c1c(n2CCC(=O)NCC2CCCCC2)CCN(C)C1
3. CN1CCc2c(c3cc(Cl)ccc3n2CCO)C1
4. Cc1ccc2c(c1)c1c(n2CC(=O)NCC2CCCCC2)CCN(C)C1
5. Cc1ccc2c(c1)c1c(n2CCC(=O)NCc2ccccc2)CCN(C)C1
6. Cc1ccc2c(c1)c1c(n2CC(=O)NCc2ccccc2)CCN(C)C1
7. Cc1ccc2c(c1)c1c(n2CCN)CCN(C)C1

1. 40%
2. 74%
3. 70%
4. 22%
5. 45%
6. 2%
7. 42%

Can you give me inhibition at 1 µM for all of these, one by one?
1. CN1CCc2c(c3cc(Cl)ccc3n2CC(=O)N(C)C)C1
2. CCNC(=O)Cn1c2c(c3cc(C)ccc31)CN(C)CC2
3. CN1CCc2c(c3cc(Cl)ccc3n2CC(=O)OCc2ccccc2)C1
4. Cc1ccc2c(c1)c1c(n2CCNC(=O)c2ccc(F)cc2)CCN(C)C1
5. CCNC(=O)CCn1c2c(c3cc(C)ccc31)CN(C)CC2

["20%", "40%", "73%", "70%", "35%"]

Can you give me inhibition at 1 µM for all of these, one by one?
1. Cc1ccc2c(c1)c1c(n2CCNC(=O)c2ccc(F)cc2Cl)CCN(C)C1
2. Cc1ccc2c(c1)c1c(n2CC(=O)O)CCN(C)C1
3. Cc1ccc2c(c1)c1c(n2CC(=O)NC(C)C)CCN(C)C1
4. CCOC(=O)Cn1c2c(c3cc(Cl)ccc31)CN(C)CC2
5. Cc1ccc2c(c1)c1c(n2CCNC(=O)c2ccncc2C)CCN(C)C1
6. CN1CCc2c(c3cc(Cl)ccc3n2CC(=O)OC2CCCC2)C1

1: 65%; 2: -7%; 3: 12%; 4: 40%; 5: 25%; 6: 67%

Reported inhibition at 1 µM for human recombinant adrenergic α2A receptor (Homo sapiens, UniProt P08913), given `Cc1ccc2c(c1)c1c(n2CCO)CCN(C)C1` ?
22%
